- System: MC38 cells
- Method Notes: Crystal violet (CV) viability assay, MC38
- Assay type: cell-based, murine
- Condition Parameters: Mus musculus, MC-38; 72 h, mean±SD; read-out: IC50 [μM] (n = 3) MC38 CV
Property Measured: IC50

{"Molecule": "O=C(O)Cc1ccccc1Nc1c(Cl)cccc1Cl", "IC50": "> 100 µM"}

Record summary for O=C1Cc2ccccc2N1c1c(Cl)cccc1Cl [CCF, reference compound] : reported IC50 = 75.1 µM

Measured values drawn from paper PMC11649784 for this set.
